Experiment: Cytotoxicity against human Huh7.5 cells assessed as reduction in cell viability incubated for 48 hrs by celltiter glo assay
Format: toxicity, cell-based, Huh-7.5
Reported Metric: CC50 at 48 h

* CCCCCCCC/C=C\CCCCCCCCOC[C@H](COP(=O)(O)OC[C@H]1O[C@@](C#N)(c2ccc3c(N)ncnn23)[C@H](O)[C@@H]1O)OCc1ccccc1 | > 100 µM
* CCCCCCCC/C=C\CCCCCCCCOC[C@H](COP(=O)(O)OC[C@H]1O[C@@](C#N)(c2ccc3c(N)ncnn23)[C@H](O)[C@@H]1O)OCc1ccc(OC)c(F)c1 | > 100 µM

---

Assay: Cytotoxicity against human Calu-3 cells assessed as reduction in cell viability incubated for 40 to 44 hrs by celltiter-glo assay
Format: toxicity, cell-based
Details: time 40-44 hrs
Reported Metric: CC50

• CCCCCCCC/C=C\CCCCCCCCOC[C@H](COP(=O)(O)OC[C@H]1O[C@@](C#N)(c2ccc3c(N)ncnn23)[C@H](O)[C@@H]1O)OCc1ccccc1 = 79.2 µM
• CCCCCCCC/C=C\CCCCCCCCOC[C@H](COP(=O)(O)OC[C@H]1O[C@@](C#N)(c2ccc3c(N)ncnn23)[C@H](O)[C@@H]1O)OCc1ccc(OC)c(F)c1 = 58.7 µM

---

Test system: SARS-CoV-2
Experiment: Antiviral activity against SARS CoV-2 USA-WA1/2020 infected in human Huh7.5 cells pretreated for 30 to 60 mins followed by viral infection and measured after 48 hrs post infection by sytox green staining based immunofluorescence analysis
Assay type: functional, organism-based
Conditions: Severe acute respiratory syndrome coronavirus 2, USA-WA1/2020, Huh7.5
pEC50: −log10 of the molar value.
This section presents compounds with their documented pEC50 values.
Reported Metric: pEC50

- CCCCCCCC/C=C\CCCCCCCCOC[C@H](COP(=O)(O)OC[C@H]1O[C@@](C#N)(c2ccc3c(N)ncnn23)[C@H](O)[C@@H]1O)OCc1ccccc1: 6.96
- CCCCCCCC/C=C\CCCCCCCCOC[C@H](COP(=O)(O)OC[C@H]1O[C@@](C#N)(c2ccc3c(N)ncnn23)[C@H](O)[C@@H]1O)OCc1ccc(OC)c(F)c1: 7.27

---

Test: Selectivity index, ratio of CC50 for cytotoxicity against human Huh7.5 cells to EC50 for antiviral activity against SARS CoV-2 USA-WA1/2020 infected in human Huh7.5 cells
Assay type: toxicity, cell-based
Settings: read-out: Ratio CC50/EC50
Reported Metric: selectivity ratio

• CCCCCCCCCCCCCCCCOC[C@H](COP(=O)(O)OC[C@H]1O[C@@](C#N)(c2ccc3c(N)ncnn23)[C@H](O)[C@@H]1O)OCc1ccccc1 = > 763
• CCCCCCCC/C=C\CCCCCCCCOC[C@H](COP(=O)(O)OC[C@H]1O[C@@](C#N)(c2ccc3c(N)ncnn23)[C@H](O)[C@@H]1O)OCc1ccccc1 = > 917
• CCCCCCCCCCCCCCOC[C@H](COP(=O)(O)OC[C@H]1O[C@@](C#N)(c2ccc3c(N)ncnn23)[C@H](O)[C@@H]1O)OCc1ccccc1 = > 636
• CCCCCCCC/C=C\CCCCCCCCOC[C@H](COP(=O)(O)OC[C@H]1O[C@@](C#N)(c2ccc3c(N)ncnn23)[C@H](O)[C@@H]1O)OCc1ccc(OC)c(F)c1 = > 1850
• CCCCCCCCCCCCCCCCCCOC[C@H](COP(=O)(O)OC[C@H]1O[C@@](C#N)(c2ccc3c(N)ncnn23)[C@H](O)[C@@H]1O)OCCCCCCCC = > 177
• CCCCCCCCCCCCCCCCCCOC[C@H](COP(=O)(O)OC[C@H]1O[C@@](C#N)(c2ccc3c(N)ncnn23)[C@H](O)[C@@H]1O)OCc1ccccc1C#N = > 980
